Data origin, for the record: paper PMC7330163

- assay_comment: Single-dose oral pharmacokinetics in rat
- Assay type: in vivo
- conditions_used: female, Sprague-Dawley, plasma, 3 mg/kg
measurement_name: Tmax (h)
Give bare numbers, in h.

Just so you know, measured Tmax for CCCNS(=O)(=O)Nc1ncnc(OCCOc2ncc(Br)cn2)c1-c1ccc(Br)cc1 [macitentan] came out at 8

* * *

- assay_comment: Single-dose intravenous pharmacokinetics in rat
- Type: in vivo, Sprague-Dawley rat
- conditions_used: female, Sprague-Dawley, plasma, iv, 0.3 mg/kg
measurement_name: clearance (mL/min/kg)
Numbers only, in mL/min/kg.

Just so you know, measured clearance for `CCCNS(=O)(=O)Nc1ncnc(OCCOc2ncc(Br)cn2)c1-c1ccc(Br)cc1` came out at 2

* * *

- assay_comment: Single-dose intravenous pharmacokinetics in rat
- Type: in vivo, Sprague-Dawley rat
- conditions_used: male, Sprague-Dawley, plasma, iv, 0.3 mg/kg
measurement_name: clearance (mL/min/kg)
Give bare numbers, in mL/min/kg.

Just so you know, measured clearance for `CCCNS(=O)(=O)Nc1ncnc(OCCOc2ncc(Br)cn2)c1-c1ccc(Br)cc1` came out at 8.2

* * *

- assay_comment: Single-dose oral pharmacokinetics in rat
- Assay type: in vivo
- conditions_used: male, Sprague-Dawley, plasma, 3 mg/kg
measurement_name: Tmax (h)
Numbers only, in h.

Just so you know, measured Tmax for CCCNS(=O)(=O)Nc1ncnc(OCCOc2ncc(Br)cn2)c1-c1ccc(Br)cc1 [macitentan] came out at 6

* * *

- assay_comment: Single-dose intravenous pharmacokinetics in rat
- Format: in vivo, Sprague-Dawley rat
- conditions_used: male, Sprague-Dawley, plasma, iv, 0.1 mg/kg
measurement_name: Vd (L/kg)
Numbers only, in L/kg.

Just so you know, measured Vd for `CCCNS(=O)(=O)Nc1ncnc(OCCOc2ncc(Br)cn2)c1-c1ccc(Br)cc1` came out at 1.6

* * *

- assay_comment: Single-dose intravenous pharmacokinetics in dog
- Type: in vivo, Beagle dog
- conditions_used: male, Beagle, plasma, 0.3 mg/kg
measurement_name: Vd (L/kg)
Answers are plain numbers, in L/kg.

Just so you know, measured Vd for `CCCNS(=O)(=O)Nc1ncnc(OCCOc2ncc(Br)cn2)c1-c1ccc(Br)cc1` came out at 1.1

* * *

- assay_comment: Single-dose oral pharmacokinetics in rat
- Type: in vivo
- conditions_used: male, Sprague-Dawley, plasma, 3 mg/kg
measurement_name: bioavailability (%)
Give bare numbers, in %.

Just so you know, measured bioavailability for `CCCNS(=O)(=O)Nc1ncnc(OCCOc2ncc(Br)cn2)c1-c1ccc(Br)cc1` came out at 53

* * *

- assay_comment: Single-dose oral pharmacokinetics in rat
- Format: in vivo
- conditions_used: male, Sprague-Dawley, plasma, 3 mg/kg
measurement_name: AUC (ng·h/mL)
Numbers only, in ng·h/mL.

Just so you know, measured AUC for `CCCNS(=O)(=O)Nc1ncnc(OCCOc2ncc(Br)cn2)c1-c1ccc(Br)cc1` came out at 3240

* * *

- assay_comment: Single-dose oral pharmacokinetics in dog
- Type: in vivo
- conditions_used: male, Beagle, plasma, 10 mg/kg
measurement_name: bioavailability (%)
One number for each entry, in %.

Just so you know, measured bioavailability for `CCCNS(=O)(=O)Nc1ncnc(OCCOc2ncc(Br)cn2)c1-c1ccc(Br)cc1` came out at 86

* * *

- assay_comment: Single-dose intravenous pharmacokinetics in rat
- Assay type: in vivo, Sprague-Dawley rat
- conditions_used: female, Sprague-Dawley, plasma, iv, 0.3 mg/kg
measurement_name: AUC (ng·h/mL)
Answers are plain numbers, in ng·h/mL.

Just so you know, measured AUC for `CCCNS(=O)(=O)Nc1ncnc(OCCOc2ncc(Br)cn2)c1-c1ccc(Br)cc1` came out at 2990
